Data origin, for the record: ChEMBL document CHEMBL2057110

Assayed target: Albumin (Homo sapiens)
Assay details: Binding affinity to human serum albumin assessed as Stern-Volmer association constant at pH 7.4 and 310K by spectrofluorimetry
Format: ADME
Experimental setup: isolated protein
Property measured: KSV (M⁻¹)

> print(dat)
                                chem.smiles  meas.value
1  CCN(CC)Cc1cc(Nc2ccnc3cc(Cl)ccc23)ccc1O.Cl       48400

###

Assayed target: Albumin (Homo sapiens, UniProt P02768)
Sequence (P02768 whole entry): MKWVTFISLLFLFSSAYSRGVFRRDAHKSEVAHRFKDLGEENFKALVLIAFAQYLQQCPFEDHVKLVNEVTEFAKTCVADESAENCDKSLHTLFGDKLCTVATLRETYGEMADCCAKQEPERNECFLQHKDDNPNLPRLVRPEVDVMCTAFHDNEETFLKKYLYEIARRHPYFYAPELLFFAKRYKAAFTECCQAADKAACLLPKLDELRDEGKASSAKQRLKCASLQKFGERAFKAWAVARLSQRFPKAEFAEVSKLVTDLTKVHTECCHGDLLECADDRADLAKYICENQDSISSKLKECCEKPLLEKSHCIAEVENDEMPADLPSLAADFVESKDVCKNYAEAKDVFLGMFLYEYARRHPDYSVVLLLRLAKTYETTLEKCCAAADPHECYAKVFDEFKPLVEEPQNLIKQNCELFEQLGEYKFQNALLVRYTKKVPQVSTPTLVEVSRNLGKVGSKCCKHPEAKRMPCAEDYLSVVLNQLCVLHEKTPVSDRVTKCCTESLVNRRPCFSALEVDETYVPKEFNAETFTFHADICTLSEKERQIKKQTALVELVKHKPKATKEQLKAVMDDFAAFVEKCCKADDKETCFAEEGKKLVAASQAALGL
Assay details: Apparent binding affinity to human serum albumin at pH 7.4 and 310K by spectrofluorimetrysis
Type: ADME
Experimental setup: isolated protein
Property measured: Kb (M⁻¹)

> print(dat)
                                chem.smiles  meas.value
1  CCN(CC)Cc1cc(Nc2ccnc3cc(Cl)ccc23)ccc1O.Cl       67300
